// provenance: PubChem BioAssay (NCATS)

System: TAB109
ASSAY EXPLANATION: qHTS profiling for inhibitors of Plasmodium falciparum proliferation (AID 504749); further: nearly all actives have a fitted effect of over 60% in size
DETAILS: P. falciparum in erythrocytes, SYBR Green DNA, 72 h; series mostly up to 28.7 µM
Results filed as inconclusive are left out. Active and inactive are the calls of the source. The call rests on the fitted dose curve; in most records, active means well fitted inhibition curve with a large enough effect; inconclusive means small, poorly fitted or top-dose-only effect; inactive means flat fitted curve, though single readings scatter.
Respond using exactly one of the listed classes: active, inactive

Ask: Could you check what this test reported for O=C1OC(c2ccc(O)cc2)(c2ccc(O)cc2)c2ccccc21 ?
Reply: inactive

Ask: Short answer needed: outcome of this test for Oc1ccc(Cl)cc1Sc1cc(Cl)ccc1O ?
Reply: inactive

Ask: Hello, I am checking results. What call was entered for CCN1CCC[C@H]1CNC(=O)c1c(OC)ccc(Br)c1OC ?
Reply: inactive

Ask: Answer briefly: the call reported for NCCC(O)(P(=O)(O)O)P(=O)(O)O in this assay.
Reply: inactive

Ask: What was the test verdict on CCOC(=O)OC(C)OC1=C(C(=O)Nc2ccccn2)N(C)S(=O)(=O)c2ccccc21 (stereo not given) ?
Reply: inactive

Ask: Would you mind telling me which call this test gave COc1ccc(/C=C/C(=O)c2ccc(OC)cc2OC)cc1 ?
Reply: active

Ask: Outcome logged for O=C(CCN1CCC(c2ccccc2)C1)c1ccc2c(c1)OCCO2 (stereo not given) in this assay:
Reply: inactive

Ask: Hello, I am checking results. What call was entered for COc1cc(NS(C)(=O)=O)ccc1Nc1c2ccccc2nc2ccccc12 ?
Reply: active

Ask: Which outcome was assigned to CC(C)(C)CC(C)(C)c1ccc(OCCOCC[N+](C)(C)Cc2ccccc2)cc1 in this test?
Reply: active

Ask: Hi, do you know how CCN1CCN(c2cc3c(cc2F)c(=O)c(C(=O)O)cn3C2CC2)CC1 came out in this test?
Reply: inactive

Ask: # outcome recorded in this test, key = CC(=O)OCC(=O)NCCCOc1cccc(CN2CCCCC2)c1
Reply: inactive

Ask: I'd appreciate the recorded outcome for CC(=O)c1ccc2c(c1)N(CCCN1CCC(CCO)CC1)c1ccccc1S2 from this test.
Reply: inactive

Ask: # outcome recorded in this test, key = NC(=O)C(=O)N/N=C/c1ccc([N+](=O)[O-])o1
Reply: inactive

Ask: What is the recorded call for this compound in the test? O=C(O)CNC(=O)c1ccccc1
Reply: inactive

Ask: Recorded call for CCCCC(CC)CN=C(N)NC(N)=NCCCCCCN=C(N)NC(N)=NCC(CC)CCCC (stereo not given) ?
Reply: active

Ask: For CC(Cc1cccc(C(F)(F)F)c1)NCCOC(=O)c1ccccc1 (stereo not given) , which call appears in the assay record?
Reply: inactive

Ask: Given CCC(=O)c1c(O)cc(O)cc1O , state the outcome it received in this test.
Reply: inactive

Ask: Please share the test call associated with C[C@H](O)C(=O)Nc1c(I)c(C(=O)NC(CO)CO)c(I)c(C(=O)NC(CO)CO)c1I .
Reply: inactive

Ask: Please let me know the test result on file for COc1cc(C(=S)N2CCOCC2)cc(OC)c1OC .
Reply: inactive

Ask: Assay outcome for CCN(CC)CCOC(=O)C(c1ccccc1)C1CCCCC1 (stereo not given) : what was it?
Reply: inactive

Ask: How was O=C(OCCOCCO)c1ccccc1Nc1cccc(C(F)(F)F)c1 classified in this test?
Reply: inactive

Ask: Which outcome was entered for the compound CN1C(CCl)Nc2cc(Cl)c(S(N)(=O)=O)cc2S1(=O)=O (stereo not given) in this test?
Reply: inactive

Ask: State the result this test recorded for O=C1CCC(c2ccc(-n3ccnc3)cc2)=NN1 .
Reply: inactive

Ask: // return assay outcome for COc1cccc(CCc2ccccc2OCC(CN(C)C)OC(=O)CCC(=O)O)c1 (stereo not given)
Reply: active

Ask: Test call for this compound, please: C[C@H]1[C@H](NC(=O)/C(=N/OC(C)(C)C(=O)O)c2csc(N)n2)C(=O)N1S(=O)(=O)O (stereo in doubt)
Reply: inactive

Ask: What did this assay record as the result for Cc1cccn2c(=O)c(-c3nnn[nH]3)cnc12 ?
Reply: inactive

Ask: Recorded test call requested for Cc1c(C)n(CCN(C)C)c2ccc(C(=O)OCCN(C)C)cc12
Reply: inactive

Ask: Per the assay record, what outcome was assigned to CCn1cc(C(=O)O)c(=O)c2cnc(N3CCCC3)nc21 ?
Reply: inactive

Ask: Entry CC(=O)Nc1c(I)cc(I)c(C(=O)O)c1I : call = ?
Reply: inactive

Ask: Can you look up the reported call for CC(=O)N(O)CCCCCNC(=O)CCC(=O)N(O)CCCCCNC(=O)CCC(=O)N(O)CCCCCN for me?
Reply: inactive

Ask: I would be grateful if you could indicate the recorded call for CCOC(=O)c1cccc(N)c1 .
Reply: inactive

Ask: Each compound tested received a call. Report the one for Cc1c(C(N)=O)cc([N+](=O)[O-])cc1[N+](=O)[O-] .
Reply: inactive

Ask: Per the records of this test, what outcome belongs to CCCCCCCCCCCCCCCC[N+](C)(C)CC ?
Reply: active

Ask: Please indicate how the test categorized C[C@]12CCC(=O)C=C1CC[C@H]1[C@@H]3CC[C@](O)(C(=O)CO)[C@@]3(C)C[C@H](O)[C@@]12F .
Reply: inactive

Ask: Recorded test call requested for O=C(Nc1ccc(Cl)c(Cl)c1)C1CC1
Reply: inactive

Ask: In this assay, the call recorded for CCCCCCCCCCCCCCCCOP(=O)([O-])OCC[N+](C)(C)C was what?
Reply: inactive

Ask: Answer briefly: the call reported for N[C@H](CO)C(=O)O in this assay.
Reply: inactive

Ask: How was COCc1c(C(C)C)nc(C(C)C)c(/C=C/[C@@H](O)C[C@@H](O)CC(=O)O)c1-c1ccc(F)cc1 classified in this test?
Reply: inactive

Ask: What did the test return for CC(O)(P(=O)(O)O)P(=O)(O)O ?
Reply: inactive

Ask: Which result was noted for this compound in the test: COC(=O)[C@@H]1CC2=CC(=O)CC[C@]2(C)[C@@]23O[C@@H]2C[C@@]2(C)[C@@H](CC[C@@]24CCC(=O)O4)[C@H]13
Reply: inactive
